biological target: Coagulation factor X (Homo sapiens, UniProt P00742); assay: Inhibitory constant against human Coagulation factor Xa determined in Vitro
Sequence (P00742 41-179 limits assumed): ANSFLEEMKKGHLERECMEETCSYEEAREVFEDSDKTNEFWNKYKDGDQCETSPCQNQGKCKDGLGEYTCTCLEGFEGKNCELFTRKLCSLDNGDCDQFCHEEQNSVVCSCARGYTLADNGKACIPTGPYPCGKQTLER
Sequence (P00742 235-488 limits assumed): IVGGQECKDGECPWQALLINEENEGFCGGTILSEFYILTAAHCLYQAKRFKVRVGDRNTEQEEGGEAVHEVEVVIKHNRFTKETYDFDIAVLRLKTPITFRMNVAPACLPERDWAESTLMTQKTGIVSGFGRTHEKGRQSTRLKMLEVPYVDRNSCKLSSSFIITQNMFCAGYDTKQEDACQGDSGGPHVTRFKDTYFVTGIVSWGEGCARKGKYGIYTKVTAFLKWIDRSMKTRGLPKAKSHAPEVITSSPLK
pKi: −log10 of the molar value.
endpoint-label: pKi

- smiles-input: "N=C(N)c1ccc(CC(=O)CN2CCCC[C@H](NS(=O)(=O)Cc3ccccc3)C2=O)cc1"
  pKi: 6.50

What does the record list as pKi for COc1ccc(S(=O)(=O)N[C@H]2CCCCN(CC(=O)Cc3ccc(C(=N)N)cc3)C2=O)cc1OC ?
< 6.47

Any idea what its pKi is? The molecule is N=C(N)c1ccc(CC(=O)CN2CCCC[C@H](NS(=O)(=O)c3ccccc3)C2=O)cc1
< 6.47

Field request: pKi | item: N=C(N)NCCC[C@H](NC(=O)CN1CCCC[C@H](NS(=O)(=O)Cc2ccccc2)C1=O)C(=O)O
7.40

Which pKi is listed for N=C(N)N1CCC(CC(=O)CN2CCCC[C@H](NS(=O)(=O)c3ccccc3)C2=O)CC1 ?
< 6.47

Can you look up the measured pKi of COc1ccc(S(=O)(=O)N[C@H]2CCCCN(CC(=O)CC3CCN(C(=N)N)CC3)C2=O)cc1OC for me?
< 6.47

Consider the molecule shown here: COC(=O)c1ccccc1CS(=O)(=O)N[C@H]1CCCCN(CC(=O)N[C@@H](CCCNC(=N)N)C(=O)O)C1=O What is its recorded pKi?
7.03

Please look up its pKi: N=C(N)c1ccc(CC(=O)CN2CCCC[C@H](NS(=O)(=O)c3ccc4c(c3)CCO4)C2=O)c(F)c1
< 6.47
